- protocolSummary: in vivo
- particulars: marmoset, in vivo, iv, 10 mg/kg, t1/2 (h), prodrug; 10 mg/kg i.v.; individual marmosets
- Description: A specific test procedure is shown below. • (1) Three marmosets (6 males in total) in each of the SN38-βGal and SN38-βGlcNAc administration groups were sequentially retained using a retention device, and a tail of the administration site was shaved. • (2) The base of the tail from the injection site was avascularized to cause blood vessels to become engorged. […]
Some compounds, each annotated with its measured half-life.
Hi! Could you send only the number? It should be in min, unit omitted.

[[record]]
smilesrepr = "CCc1c2c(nc3ccc(O[C@@H]4O[C@H](CO)[C@@H](O)[C@H](O)[C@H]4NC(C)=O)cc13)-c1cc3c(c(=O)n1C2)COC(=O)[C@]3(O)CC"
observedmeasurement = 43.9


Now look at this entry.
Name the reported half-life value associated with the compound CCc1c2c(nc3ccc(O[C@@H]4O[C@H](CO)[C@H](O)[C@H](O)[C@H]4O)cc13)-c1cc3c(c(=O)n1C2)COC(=O)[C@]3(O)CC
49.9

----------
Some compounds, each annotated with its measured LD50 at 336 h.
- protocolSummary: Single dose toxicity test 2 (intravenous)
- Format: in vivo, Jcl: ICR mice (female)
- particulars: mouse, in vivo, iv, single intravenous administration, estimated

[[record]]
smilesrepr = "CCc1c2c(nc3ccc(O[C@@H]4O[C@H](CO)[C@@H](O)[C@H](O)[C@H]4NC(C)=O)cc13)-c1cc3c(c(=O)n1C2)COC(=O)[C@]3(O)CC"
observedmeasurement = "≥ 500 mg/kg"


Now look at this entry.
Name the reported LD50 at 336 h value associated with the compound CCc1c2c(nc3ccc(O[C@@H]4O[C@H](CO)[C@H](O)[C@H](O)[C@H]4O)cc13)-c1cc3c(c(=O)n1C2)COC(=O)[C@]3(O)CC
≥ 300 mg/kg

----------
- protocolSummary: in vivo
- particulars: marmoset, in vivo, iv, 10 mg/kg, CLtot (mL/min/kg), prodrug; 10 mg/kg i.v.; individual marmosets
- Text: A specific test procedure is shown below. • (1) Three marmosets (6 males in total) in each of the SN38-βGal and SN38-βGlcNAc administration groups were sequentially retained using a retention device, and a tail of the administration site was shaved. • (2) The base of the tail from the injection site was avascularized to cause blood vessels to become engorged. […]
metric: clearance (mL/min/kg)
Hi! Could you send only the number? It should be in mL/min/kg, unit omitted.

Name the reported clearance value associated with the molecule CCc1c2c(nc3ccc(O[C@@H]4O[C@H](CO)[C@@H](O)[C@H](O)[C@H]4NC(C)=O)cc13)-c1cc3c(c(=O)n1C2)COC(=O)[C@]3(O)CC
2.3

----------
Some compounds, each annotated with its measured AUC(0-t) at 6 h.
- protocolSummary: in vivo
- particulars: marmoset, in vivo, iv, 10 mg/kg, AUC0-6h (μg・h/mL), prodrug, 11 min infusion, N=3, average
Hi! Could you send only the number? It should be in ng·h/mL, unit omitted.

[[record]]
smilesrepr = "CCc1c2c(nc3ccc(O[C@@H]4O[C@H](CO)[C@@H](O)[C@H](O)[C@H]4NC(C)=O)cc13)-c1cc3c(c(=O)n1C2)COC(=O)[C@]3(O)CC"
observedmeasurement = 78300


Now look at this entry.
Name the reported AUC(0-t) at 6 h value associated with the compound CCc1c2c(nc3ccc(O[C@@H]4O[C@H](CO)[C@H](O)[C@H](O)[C@H]4O)cc13)-c1cc3c(c(=O)n1C2)COC(=O)[C@]3(O)CC
52700
